As shown below, each of these substances has a reported MCV value.
- Method summary: Cynomolgus monkey tolerability, hematology (Example 34)
- Type: in vivo, cynomolgus monkeys
- Condition description: cynomolgus monkey, in vivo, sc, 35 mg/kg
- Description: To evaluate any effect of Ionis oligonucleotides in cynomolgus monkeys on hematologic parameters, blood samples of approximately 0.5 mL of blood was collected from each of the available study animals on day 44. The samples were collected in tubes containing K2-EDTA. […]
Please give a number only; it is taken to be in fL.

[
  {
    "Substance": "1198872 (TGTATGTCAGAAGAGT; chemically modified gapmer, further chemistry not given here) [compound 1198872]",
    "MCV / fL": 78
  },
  {
    "Substance": "1198728 (TATTAGAGTATGTGGC; modified gapmer, further chemistry not given here) [compound 1198728]",
    "MCV / fL": 80
  },
  {
    "Substance": "1198831 (CACTTTTACATTAGGA; chemically modified gapmer, further chemistry not given here) [compound 1198831]",
    "MCV / fL": 76
  }
]

Input: Form field: reported MCV of 1076453 (GTAATATTGCAATCTG; 3-10-3 cEt gapmer, further chemistry not given here) [compound 1076453]
Output: 79

Input: Form field: reported MCV of 1198623 (CTAAGTAAGGTTTCCC; modified gapmer, further chemistry not given here) [compound 1198623]
Output: 78

* * *

- Test system: Yap1 mRNA
- Method summary: Dose-dependent inhibition of human Yap1 in A-431 cells (Example 7, 10,000 cells per well, RTS36584)
- Assay type: cell-based
- Condition description: Table 56, A-431 cells 10,000 cells per well, free uptake
Strand notation (5' to 3'): a small letter for the sugar, then the base; units joined by * are phosphorothioate-linked, units joined directly phosphodiester-linked; [ ] holds rarer units or linkages, { } end groups; capitals alone tell only the bases. k = constrained ethyl (cEt); [5mC] = 5-methylcytosine; d = 2'-deoxy (DNA)
Metric name: IC50 (nM)
Please give a number only; it is taken to be in nM.

Consider the following illustrative entries.
[
  {
    "Substance": "958596 (kA*kG*k[5mC]*dA*dG*dT*dT*dA*dA*dG*d[5mC]*dA*d[5mC]*kT*kT*kT; antisense) [compound 958596]",
    "Test system": "Yap1 mRNA",
    "IC50 (nM)": 40
  },
  {
    "Substance": "958373 (antisense kA*kG*kG*dT*dG*d[5mC]*dT*dA*dG*d[5mC]*dT*dG*dG*kT*kG*k[5mC]) [compound 958373]",
    "Test system": "Yap1 mRNA",
    "IC50 (nM)": 50
  },
  {
    "Substance": "958369 (antisense kT*kT*kA*dT*d[5mC]*dT*dA*dG*d[5mC]*dT*dT*dG*dG*kT*kG*kG) [compound 958369]",
    "Test system": "Yap1 mRNA",
    "IC50 (nM)": 170
  },
  {
    "Substance": "958371 (antisense kA*k[5mC]*k[5mC]*dA*dA*d[5mC]*dT*dA*dT*dT*dA*d[5mC]*dT*kT*k[5mC]*kA) [compound 958371]",
    "Test system": "Yap1 mRNA",
    "IC50 (nM)": 100
  },
  {
    "Substance": "958721 (kG*kT*kA*dG*dT*dA*dT*dA*dA*dT*dG*dA*dG*kT*kT*kA; antisense) [compound 958721]",
    "Test system": "Yap1 mRNA",
    "IC50 (nM)": 30
  }
]

Input: Form field: reported IC50 of 958726 (k[5mC]*kT*kG*dT*d[5mC]*dA*dG*dT*dT*dA*dT*d[5mC]*d[5mC]*kT*kA*kT; antisense) [compound 958726]
Output: 170

Input: Form field: reported IC50 of 958403 (antisense k[5mC]*kA*kG*dT*dT*dT*dA*dT*dG*dT*dA*dG*dT*kA*kG*kT) [compound 958403]
Output: 120

Input: Form field: reported IC50 of 958536 (kA*kG*kG*dG*dT*d[5mC]*dA*dA*dT*dT*dT*dT*d[5mC]*kA*kG*k[5mC]; antisense) [compound 958536]
Output: 140

Input: Form field: reported IC50 of 715491 (kA*kA*k[5mC]*d[5mC]*dA*dA*d[5mC]*dT*dA*dT*dT*dA*d[5mC]*kT*kT*k[5mC]) [compound 715491]
Output: 270

Input: Form field: reported IC50 of 715483 (k[5mC]*kT*k[5mC]*dT*dT*dT*dG*dG*dA*dA*dA*d[5mC]*d[5mC]*kA*kT*kT) [compound 715483]
Output: 50

* * *

- Tested on: Yap1 mRNA
- Method summary: Dose-dependent inhibition of human Yap1 in A-431 cells (Example 7, 10,000 cells per well, RTS36584)
- Type: cell-based
- Condition description: Table 59, 15.6 nM, free uptake, A-431 cells 10,000 cells per well, 48 hours
Strand notation (5' to 3'): a small letter for the sugar, then the base; units joined by * are phosphorothioate-linked, units joined directly phosphodiester-linked; [ ] holds rarer units or linkages, { } end groups; capitals alone tell only the bases. k = constrained ethyl (cEt); [5mC] = 5-methylcytosine; d = 2'-deoxy (DNA)
Outcome label depends on Yap1 mRNA, % UTC relative to 80 % UTC: at/above gives YES, below gives NO.

[
  {
    "Substance": "958553 (k[5mC]*k[5mC]*kA*dT*dT*dA*dT*dT*dA*d[5mC]*dT*d[5mC]*d[5mC]*kT*kG*kT; antisense) [compound 958553]",
    "Test system": "Yap1 mRNA",
    "Category": "NO"
  },
  {
    "Substance": "958498 (kG*kA*kG*dT*dA*dT*dG*dT*dG*dG*d[5mC]*dA*dA*kT*kA*kA; antisense) [compound 958498]",
    "Test system": "Yap1 mRNA",
    "Category": "NO"
  },
  {
    "Substance": "958562 (k[5mC]*kA*kT*dT*dG*dA*dA*dA*dG*dA*d[5mC]*d[5mC]*d[5mC]*kT*kT*kA; antisense) [compound 958562]",
    "Test system": "Yap1 mRNA",
    "Category": "YES"
  },
  {
    "Substance": "958597 (k[5mC]*k[5mC]*k[5mC]*dA*dA*dT*dA*d[5mC]*dA*dA*d[5mC]*d[5mC]*dA*kA*kG*kA; antisense) [compound 958597]",
    "Test system": "Yap1 mRNA",
    "Category": "YES"
  }
]

Input: Threshold query (Yap1 mRNA, % UTC >= 80 % UTC) on 958758 (k[5mC]*kT*kA*dT*dT*d[5mC]*dA*dG*dT*dG*dA*dT*d[5mC]*kT*kG*k[5mC]; antisense) [compound 958758]
Output: YES

Input: Threshold query (Yap1 mRNA, % UTC >= 80 % UTC) on 958737 (kG*kG*kA*dA*dT*dA*d[5mC]*dA*dA*dG*d[5mC]*d[5mC]*d[5mC]*kG*kA*kG; antisense) [compound 958737]
Output: YES

Input: Threshold query (Yap1 mRNA, % UTC >= 80 % UTC) on 958763 (k[5mC]*kA*k[5mC]*dA*dA*dT*dA*d[5mC]*dA*dA*dG*dA*dT*kG*k[5mC]*kA; antisense) [compound 958763]
Output: YES

Input: Threshold query (Yap1 mRNA, % UTC >= 80 % UTC) on 958533 (kG*k[5mC]*kA*dT*dA*dG*dA*dA*dG*dT*dA*dG*dG*kA*kG*k[5mC]; antisense) [compound 958533]
Output: YES

Input: Threshold query (Yap1 mRNA, % UTC >= 80 % UTC) on 958572 (kA*kT*kT*dA*dT*dA*dG*dG*d[5mC]*dA*d[5mC]*dT*d[5mC]*k[5mC]*kT*kT; antisense) [compound 958572]
Output: YES

* * *

As shown below, each of these substances has a reported Yap1 mRNA, % UTC value.
- Tested on: Yap1 mRNA
- Method summary: Dose-dependent inhibition of human Yap1 in A-431 cells (Example 8, 10,000 cells per well, RTS4814)
- Type: cell-based
- Condition description: 125.0 nM; A-431 cells, 10,000 cells per well, free uptake, approximately 48 hours, RTS4814
Strand notation (5' to 3'): a small letter for the sugar, then the base; units joined by * are phosphorothioate-linked, units joined directly phosphodiester-linked; [ ] holds rarer units or linkages, { } end groups; capitals alone tell only the bases. k = constrained ethyl (cEt); [5mC] = 5-methylcytosine; d = 2'-deoxy (DNA)
Please give a number only; it is taken to be in % UTC.

Consider the following illustrative entries.
[
  {
    "Substance": "1074419 (kA*kT*kT*d[5mC]*dT*dT*dT*dA*dG*dA*dG*d[5mC]*d[5mC]*kA*kA*k[5mC]; antisense) [compound 1074419]",
    "Unit abbreviation": "% UTC",
    "Yap1 mRNA, % UTC": 15
  },
  {
    "Substance": "1076426 (kA*k[5mC]*kG*dG*dG*dA*dA*dA*dA*dT*dT*d[5mC]*dT*kG*kG*kA; antisense) [compound 1076426]",
    "Unit abbreviation": "% UTC",
    "Yap1 mRNA, % UTC": 46
  },
  {
    "Substance": "1074576 (DNA kA*kT*kG*d[5mC]*dA*d[5mC]*dA*dT*dT*dA*dT*dG*dA*kA*k[5mC]*k[5mC]) [compound 1074576]",
    "Unit abbreviation": "% UTC",
    "Yap1 mRNA, % UTC": 41
  }
]

Input: Form field: reported Yap1 mRNA, % UTC of 1076486 (kG*kA*kA*dA*d[5mC]*dG*dA*dA*dA*d[5mC]*dG*dG*dG*kA*kA*kA; antisense) [compound 1076486]
Output: 45

Input: Form field: reported Yap1 mRNA, % UTC of 1074566 (DNA CACTGAATTCCAATCG; 3-10-3 cEt gapmer, chemistry not fully specified) [compound 1074566]
Output: 12

Input: Form field: reported Yap1 mRNA, % UTC of 1074606 (DNA kG*kG*kT*dA*dT*dA*dA*dT*d[5mC]*dA*dT*dG*dA*kT*kT*kA) [compound 1074606]
Output: 10
